// reported inhibition value (inhibitor concentration at 25% inhibition) for each item listed
Target: IgE antibodies of the allergic patient serum pool Bor 18/100 (20 donors)
Experiment: EAST inhibition, serum pool Bor 18/100
assayMetric: inhibition value (inhibitor concentration at 25% inhibition) (mol/L)

>  <binder>
rPhl p 5b deletion mutant DM3 (deletion A154-T177, A220T) (protein) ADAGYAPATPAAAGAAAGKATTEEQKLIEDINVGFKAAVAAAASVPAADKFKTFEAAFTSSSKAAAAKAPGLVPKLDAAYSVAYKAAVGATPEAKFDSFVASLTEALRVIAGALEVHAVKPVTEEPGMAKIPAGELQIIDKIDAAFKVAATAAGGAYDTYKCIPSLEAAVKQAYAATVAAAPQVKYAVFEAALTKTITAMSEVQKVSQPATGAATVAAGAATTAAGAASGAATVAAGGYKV

>  <measuredNumber>
1.2e-09

$$$$
>  <binder>
rPhl p 5b deletion mutant DM1 (deletion K50-P132, D49L) (protein) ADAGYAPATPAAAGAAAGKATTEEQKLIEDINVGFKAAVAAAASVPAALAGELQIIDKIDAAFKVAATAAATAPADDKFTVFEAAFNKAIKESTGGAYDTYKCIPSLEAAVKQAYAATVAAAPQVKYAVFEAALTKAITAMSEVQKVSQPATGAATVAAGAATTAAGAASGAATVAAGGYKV

>  <measuredNumber>
8.6e-09

$$$$
>  <binder>
rPhl p 5b point mutant PM1 (N32D, D49L, K50A) (protein) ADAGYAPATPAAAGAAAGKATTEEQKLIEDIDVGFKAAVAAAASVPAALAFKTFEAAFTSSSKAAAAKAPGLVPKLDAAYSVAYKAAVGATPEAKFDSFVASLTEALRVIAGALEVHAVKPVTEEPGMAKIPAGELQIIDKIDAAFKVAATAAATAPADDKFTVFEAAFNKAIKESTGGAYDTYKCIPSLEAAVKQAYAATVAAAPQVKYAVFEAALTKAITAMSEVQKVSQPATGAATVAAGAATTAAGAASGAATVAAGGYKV

>  <measuredNumber>
4.5e-10

$$$$
>  <binder>
natural Phl p 5b, purified by affinity chromatography (protein) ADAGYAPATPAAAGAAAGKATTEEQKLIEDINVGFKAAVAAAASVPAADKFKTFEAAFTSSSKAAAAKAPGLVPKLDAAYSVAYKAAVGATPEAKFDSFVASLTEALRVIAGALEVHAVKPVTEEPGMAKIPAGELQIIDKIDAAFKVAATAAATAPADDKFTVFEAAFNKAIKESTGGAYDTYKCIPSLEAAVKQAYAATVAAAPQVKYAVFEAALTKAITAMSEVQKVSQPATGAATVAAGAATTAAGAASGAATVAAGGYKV

>  <measuredNumber>
3.3e-10

$$$$
